# Test system: chicken BCRP (Abcg2)
# TEST: Bidirectional transport assay in MDCK-chAbcg2 cells
# Assay type: in vitro ADME
# RUN CONDITIONS: chicken; MDCK-chAbcg2, with gefitinib (100 μM); FFC 50 μM, 4 h
VALUE TYPE: Papp B→A at 4 h, 50 μM (×10⁻⁶ cm/s)
Express your answer in ×10⁻⁶ cm/s, writing the number without its unit.

Provide Papp B→A at 4 h, 50 μM value for the following compound: CS(=O)(=O)c1ccc([C@@H](O)[C@@H](CF)NC(=O)C(Cl)Cl)cc1 [florfenicol, Florfenicol]
0.43

----------
# TEST: Bidirectional transport assay in wild-type MDCK cells
# Assay type: in vitro ADME, canine
# RUN CONDITIONS: dog, with gefitinib (100 μM), FFC 50 μM
VALUE TYPE: Papp A→B at 4 h, 50 μM (×10⁻⁶ cm/s)
Express your answer in ×10⁻⁶ cm/s, writing the number without its unit.

Provide Papp A→B at 4 h, 50 μM value for the following compound: `CS(=O)(=O)c1ccc([C@@H](O)[C@@H](CF)NC(=O)C(Cl)Cl)cc1`
0.37

----------
# TEST: Pharmacokinetic studies of FFC in broilers
# Type: in vivo, Arbor Acres (AA) broilers
# RUN CONDITIONS: Arbor Acres (AA) broiler, plasma, iv, 10 mg/kg, intravenous 10 mg/kg, 8-week old broilers; read-out: T1/2β (converted)
VALUE TYPE: half-life
Please make sure the unit comes right after the number.

Provide half-life value for the following compound: `CS(=O)(=O)c1ccc([C@@H](O)[C@@H](CF)NC(=O)C(Cl)Cl)cc1`
47.4 min

----------
# TEST: Pharmacokinetic studies of FFC in broilers
# Type: in vivo, Arbor Acres (AA) broilers
# RUN CONDITIONS: Arbor Acres (AA) broiler, plasma, po, 20 mg/kg, oral 20 mg/kg, 4-week old broilers
VALUE TYPE: Tmax (min)
Express your answer in min, writing the number without its unit.

Provide Tmax value for the following compound: CS(=O)(=O)c1ccc([C@@H](O)[C@@H](CF)NC(=O)C(Cl)Cl)cc1 [florfenicol, Florfenicol]
37.8

----------
# TEST: Pharmacokinetic studies of FFC in broilers
# Type: in vivo, Arbor Acres (AA) broilers
# RUN CONDITIONS: Arbor Acres (AA) broiler, plasma, po, 20 mg/kg, oral 20 mg/kg, 4-week old broilers; read-out: AUC0~12h
# Text: […]
VALUE TYPE: AUC(0-t) (ng·h/mL)
Express your answer in ng·h/mL, writing the number without its unit.

Provide AUC(0-t) value for the following compound: CS(=O)(=O)c1ccc([C@@H](O)[C@@H](CF)NC(=O)C(Cl)Cl)cc1 [florfenicol, Florfenicol]
8580

----------
# TEST: Bidirectional transport assay in wild-type MDCK cells
# Type: in vitro ADME, canine
# RUN CONDITIONS: dog, without gefitinib, FFC 50 μM
VALUE TYPE: Papp B→A at 4 h, 50 μM (×10⁻⁶ cm/s)
Express your answer in ×10⁻⁶ cm/s, writing the number without its unit.

Provide Papp B→A at 4 h, 50 μM value for the following molecule: `CS(=O)(=O)c1ccc([C@@H](O)[C@@H](CF)NC(=O)C(Cl)Cl)cc1`
0.4

----------
# System: chicken BCRP (Abcg2)
# TEST: Bidirectional transport assay in MDCK-chAbcg2 cells
# Assay type: in vitro ADME
# RUN CONDITIONS: chicken; MDCK-chAbcg2, without gefitinib; FFC 50 μM, 4 h
VALUE TYPE: Papp B→A at 4 h, 50 μM (×10⁻⁶ cm/s)
Express your answer in ×10⁻⁶ cm/s, writing the number without its unit.

Provide Papp B→A at 4 h, 50 μM value for the following molecule: `CS(=O)(=O)c1ccc([C@@H](O)[C@@H](CF)NC(=O)C(Cl)Cl)cc1`
0.68

----------
# TEST: Pharmacokinetic studies of FFC in broilers
# Assay type: in vivo, Arbor Acres (AA) broilers
# RUN CONDITIONS: Arbor Acres (AA) broiler, plasma, po, 20 mg/kg, oral 20 mg/kg vs i.v. 10 mg/kg, 8-week old broilers; read-out: F (absolute bioavailability)
VALUE TYPE: bioavailability (%)
Express your answer in %, writing the number without its unit.

Provide bioavailability value for the following compound: `CS(=O)(=O)c1ccc([C@@H](O)[C@@H](CF)NC(=O)C(Cl)Cl)cc1`
48

----------
# TEST: Pharmacokinetic studies of FFC in broilers
# Type: in vivo, Arbor Acres (AA) broilers
# RUN CONDITIONS: Arbor Acres (AA) broiler, plasma, po, 20 mg/kg, oral 20 mg/kg, 4-week old broilers
# Text: […]
VALUE TYPE: Cmax (ng/mL)
Express your answer in ng/mL, writing the number without its unit.

Provide Cmax value for the following molecule: `CS(=O)(=O)c1ccc([C@@H](O)[C@@H](CF)NC(=O)C(Cl)Cl)cc1`
3870

----------
# TEST: Pharmacokinetic studies of FFC in broilers
# Format: in vivo, Arbor Acres (AA) broilers
# RUN CONDITIONS: Arbor Acres (AA) broiler, plasma, po, 20 mg/kg, oral 20 mg/kg, 8-week old broilers
VALUE TYPE: Cmax
Please make sure the unit comes right after the number.

Provide Cmax value for the following compound: CS(=O)(=O)c1ccc([C@@H](O)[C@@H](CF)NC(=O)C(Cl)Cl)cc1 [florfenicol, Florfenicol]
2930 ng/mL

----------
# TEST: Pharmacokinetic studies of FFC in broilers
# Type: in vivo, Arbor Acres (AA) broilers
# RUN CONDITIONS: Arbor Acres (AA) broiler, plasma, iv, 10 mg/kg, intravenous 10 mg/kg, 8-week old broilers; read-out: Vd
VALUE TYPE: Vd
Please make sure the unit comes right after the number.

Provide Vd value for the following compound: CS(=O)(=O)c1ccc([C@@H](O)[C@@H](CF)NC(=O)C(Cl)Cl)cc1 [florfenicol, Florfenicol]
1.18 L/kg

----------
# TEST: Pharmacokinetic studies of FFC in broilers
# Format: in vivo, Arbor Acres (AA) broilers
# RUN CONDITIONS: Arbor Acres (AA) broiler, plasma, po, 20 mg/kg, oral 20 mg/kg, 8-week old broilers
VALUE TYPE: Tmax
Please make sure the unit comes right after the number.

Provide Tmax value for the following compound: `CS(=O)(=O)c1ccc([C@@H](O)[C@@H](CF)NC(=O)C(Cl)Cl)cc1`
37.2 min

----------
# System: chicken BCRP (Abcg2)
# TEST: Bidirectional transport assay in MDCK-chAbcg2 cells
# Type: in vitro ADME
# RUN CONDITIONS: chicken; MDCK-chAbcg2, with gefitinib (100 μM); FFC 50 μM, 4 h
VALUE TYPE: Papp A→B at 4 h, 50 μM (×10⁻⁶ cm/s)
Express your answer in ×10⁻⁶ cm/s, writing the number without its unit.

Provide Papp A→B at 4 h, 50 μM value for the following molecule: `CS(=O)(=O)c1ccc([C@@H](O)[C@@H](CF)NC(=O)C(Cl)Cl)cc1`
0.37

----------
# TEST: Pharmacokinetic studies of FFC in broilers
# Type: in vivo, Arbor Acres (AA) broilers
# RUN CONDITIONS: Arbor Acres (AA) broiler, plasma, iv, 10 mg/kg, intravenous 10 mg/kg, 4-week old broilers; read-out: Vd
VALUE TYPE: Vd (L/kg)
Express your answer in L/kg, writing the number without its unit.

Provide Vd value for the following molecule: `CS(=O)(=O)c1ccc([C@@H](O)[C@@H](CF)NC(=O)C(Cl)Cl)cc1`
1.51

----------
# TEST: Bidirectional transport assay in wild-type MDCK cells
# Format: in vitro ADME, canine
# RUN CONDITIONS: dog, without gefitinib, FFC 50 μM
VALUE TYPE: Papp A→B at 4 h, 50 μM (×10⁻⁶ cm/s)
Express your answer in ×10⁻⁶ cm/s, writing the number without its unit.

Provide Papp A→B at 4 h, 50 μM value for the following compound: `CS(=O)(=O)c1ccc([C@@H](O)[C@@H](CF)NC(=O)C(Cl)Cl)cc1`
0.4

----------
# TEST: Pharmacokinetic studies of FFC in broilers
# Type: in vivo, Arbor Acres (AA) broilers
# RUN CONDITIONS: Arbor Acres (AA) broiler, plasma, po, 20 mg/kg, with gefitinib 100 mg/kg (BCRP inhibitor, co-dosed orally), oral 20 mg/kg, 8-week old broilers administered gefitinib (100 mg/kg)
VALUE TYPE: Cmax

Provide Cmax value for the following molecule: `CS(=O)(=O)c1ccc([C@@H](O)[C@@H](CF)NC(=O)C(Cl)Cl)cc1`
1730 ng/mL

----------
# TEST: Pharmacokinetic studies of FFC in broilers
# Assay type: in vivo, Arbor Acres (AA) broilers
# RUN CONDITIONS: Arbor Acres (AA) broiler, plasma, po, 20 mg/kg, with gefitinib 100 mg/kg (BCRP inhibitor, co-dosed orally), oral 20 mg/kg, 8-week old broilers administered gefitinib (100 mg/kg); read-out: T1/2β (converted)
VALUE TYPE: half-life (h)
Express your answer in h, writing the number without its unit.

Provide half-life value for the following compound: CS(=O)(=O)c1ccc([C@@H](O)[C@@H](CF)NC(=O)C(Cl)Cl)cc1 [florfenicol, Florfenicol]
3.5
